Experiment: Hydrophobicity index measured by retention time on a reverse phase HPLC column.
Type: ADME
// values below are reported k'
The answer should be a number; do not append a unit.

Some molecules with recorded k':
>  <Record smiles>
Cn1c(=O)[nH]c2c(cnn2-c2ccccc2F)c1=N

>  <k'>
1.1

$$$$
>  <Record smiles>
Cn1c(=O)[nH]c2c(cnn2-c2ccccc2Cl)c1=N

>  <k'>
1.7

$$$$
>  <Record smiles>
Cn1c(=O)[nH]c2c(cnn2-c2cccc(N)c2)c1=N

>  <k'>
0.7

$$$$

Incoming: Requested read-out: k'. Entry: Cn1c(=O)[nH]c2c(cnn2-c2ccccc2Br)c1=N
Outgoing: 1.8

Incoming: Requested read-out: k'. Entry: Cn1c(=O)[nH]c2c(cnn2-c2ccccc2)c1=N
Outgoing: 2.6

Incoming: Requested read-out: k'. Entry: Cn1c(=O)[nH]c2c(cnn2-c2ccccc2[N+](=O)[O-])c1=N
Outgoing: 0.9

These measurements were taken from ChEMBL document CHEMBL1125214.
